Test: Efflux ratio of apparent permeability in dog MDCK-MDR1 cells
Assay type: ADME, cell-based, Canis lupus familiaris
reported_property: efflux ratio
Give bare numbers.

[[record]]
record_smiles = "O=C1CN(C(=O)CSc2ncnc3c(C4CC4)c(Cl)sc23)CCN1"
val = 8.2

[[record]]
record_smiles = "O=C(CSc1ncnc2c(C3CC3)c(Cl)sc12)N1CCOCC1"
val = 0.95

[[record]]
record_smiles = "O=C(CSc1ncnc2c(C3CC3)c(Cl)sc12)N1CCn2cnnc2C1"
val = 98


Next:
Input: Using the record for `O=C1CN(C(=O)CSc2ncnc3c(C4CC4)c(Cl)sc23)CN1` , report its efflux ratio.
Output: 3.7

---

Can you tell me microsomal CLint for the items I'm about to list?
Assay: Intrinsic clearance in mouse liver microsomes
Type: ADME, Microsome
Settings: read-out: CLH
Give bare numbers, in µL/min/mg.

Solved entries (count: 2):
[[record]]
record_smiles = "O=C(CSc1ncnc2c(C3CC3)c(Cl)sc12)N1CCn2cnnc2C1"
val = 29

[[record]]
record_smiles = "O=C1CN(C(=O)CSc2ncnc3c(C4CC4)c(Cl)sc23)CN1"
val = 19


Input: Using the record for `O=C1CN(C(=O)CSc2ncnc3c(C4CC4)c(Cl)sc23)CCN1` , report its microsomal CLint.
Output: 24

---

Experiment: Apparent permeability across basolateral to apical membrane in dog MDCK-MDR1 cells
Format: ADME, cell-based, Canis lupus familiaris
reported_property: Papp B→A (×10⁻⁶ cm/s)
Answers are plain numbers, in ×10⁻⁶ cm/s.

[[record]]
record_smiles = "O=C(CSc1ncnc2c(C3CC3)c(Cl)sc12)N1CCOCC1"
unit_name = "×10⁻⁶ cm/s"
val = 38


# map each molecule to its Papp B→A
1. O=C1CN(C(=O)CSc2ncnc3c(C4CC4)c(Cl)sc23)CCN1
2. O=C(CSc1ncnc2c(C3CC3)c(Cl)sc12)N1CCn2cnnc2C1
3. O=C1CN(C(=O)CSc2ncnc3c(C4CC4)c(Cl)sc23)CN1

Output:
1: 65; 2: 93; 3: 14
